# Test system: mitochondrial DNA (COXII gene) in HepG2 cells
# ASSAY: Mitochondrial toxicity assay in HepG2 cells: mitochondrial DNA
# Assay type: cell-based
# STATED CONDITIONS: HepG2 cells, 14-day assay; read-out: IC50 MtDNA
MEASURE: IC50

Task: Give the measured IC50 of Nc1ccn([C@H]2CC[C@@H](CO)O2)c(=O)n1 [ddC, reference compound] .
Result: < 10 µM

---

# System: wild type HBV
# ASSAY: Anti-HBV assay in AD-38 cell line
# Type: cell-based
# STATED CONDITIONS: Hepatitis B virus; AD-38 cells, HBV in culture supernatant; read-out: Anti-HBV activity EC50
# EC50 per record follows

Task: Give the measured EC50 of `Cn1cc(C(=O)C(=O)NCC#N)cc1C(=O)Nc1ccc(F)c(F)c1` .
Result: 1 to 9 µM
